- method.summary: in vitro
- run.conditions: human, TOX HELA CC50 (μM)
recorded.metric: CC50 at 3 days (µM)
Report the figure in µM without appending any unit label.

C[C@@H]1c2ccccc2CCN1C(=O)c1cc(C2CC2)n2nc(-c3ccc(N4C[C@@H](O)[C@H](O)C4)cc3F)cc2n1 ... 23.8
C[C@@H]1c2ccccc2CCN1C(=O)c1cc(C2CC2)n2nc(-c3ccc(N4CC[C@@H](C(C)(C)C(N)=O)C4)cc3F)cc2n1 (single isomer, unassigned) ... 32.2
Cc1cc(N2CC[C@H](C(N)=O)C2)cc(F)c1-c1cc2nc(C(=O)N3CCc4ccccc4[C@H]3C)cc(C3CC3)n2n1 ... 33.4
C[C@@H]1c2ccccc2CCN1C(=O)c1cc(C2CC2)n2nc(-c3ccc(N4CC[C@H](N)C4)cc3F)cc2n1 ... 13.4

Field: next molecule
Fill in: CC50 at 3 days of `C[C@@H]1c2ccccc2CCN1C(=O)c1cc(C2CC2)n2nc(-c3c(F)cc(N4CC[C@H](C(N)=O)C4)cc3OCCO)cc2n1` is ___ 21

Data credit: patent US11339165B2
